System: KM12 colon
Experiment: NCI tumour cell line growth inhibition, 48 h
quantity name: GI50

Give GI50 for each of the items listed below.
1. CCCCCc1nc2c(c3c1CCCC3)CCCC2
2. Cc1cc(NCCCNc2ccnc3cc(Cl)ccc23)nc(N2CCN(C)CC2)n1
3. Cc1ccc2c(c1)c1nc3cc(C)c(C)cc3nc1n2CCN(C)C
4. COc1cc(C(=O)N2N=C(c3ccc(S(C)(=O)=O)cc3)CC2c2ccco2)cc(OC)c1OC (stereo not given)
5. Nc1ncnc2c1ncn2Cc1ccc(C23CC4CC(CC(C4)C2)C3)c(OCc2cc(F)c(F)cc2F)c1

*A*
6.94 µM
3.97 µM
2.67 µM
3.51 µM
3.92 µM

* * *

Kindly state TGI for each of the entries shown.
Test system: NCI-H226 lung
Assay: NCI tumour cell line growth inhibition, 48 h

Sample records with TGI:
compound	TGI
COC(=O)CC1C(COC(C)=O)OC(n2cc(C)c(=O)[nH]c2=O)C1OC(C)=O (stereo not drawn)	> 100 µM
CCOC(=O)C[C@@H]1C2(C=C[C@@]13CO3)OCC(C)(C)CO2	> 100 µM
O=Cc1c2ccccc2n2ccc3c4ccccc4[nH]c3c12	> 10 µM
CC(=O)N1CN2C(=O)CCC2c2ccccc21 (stereo not drawn)	> 100 µM
CCCOC(=O)C1CCC(=O)N1C(=O)C(C)Cl (stereo not drawn)	> 100 µM
CC1(Cl)CC2OC3(Br)C=CC(C)(O)C2(CC1Br)C3(C)C (stereo not drawn)	> 100 µM
Cc1ccccc1C1OC(=O)c2ccccc21 (stereo not drawn)	> 100 µM
O=c1cc(-c2ccccc2)oc2cc(O)c(O)c(O)c12	58 µM

Quick request: TGI for each listed item, please.
1. Cc1c(C#N)c2ccccc2c2nc3ccccc3n12
2. CC(=O)O[C@]12CCCCC1C1(O)C(O)CCCCC12 (stereo partly drawn)
3. COP(=O)(Cc1ccc(/C=C/C#N)o1)OC
4. CCOc1ccc(-c2cnnn2-c2nonc2-n2cccc2)cc1
5. O=C(Nc1nc(C23CC4CC(CC(C4)C2)C3)cs1)c1c(O)c2ccccc2[nH]c1=O
6. NC(=O)C#CC#CC#CCO

*A*
1. > 100 µM
2. > 100 µM
3. > 100 µM
4. > 100 µM
5. > 100 µM
6. 27.5 µM

Batch request: TGI per item, same order as input.
1. C=CCOC(=O)Cn1cc(C)c(=O)[nH]c1=O
2. CCC1C(=O)OCc2c1cc1n(c2=O)Cc2cc3ccccc3nc2-1 (stereo not drawn)
3. CCCCCCCCCCCCCCCc1ccc(OCC(O)CO)cc1 (stereo not drawn)
4. N#Cc1n[nH]n(C2CCCCC2)c1=O
5. O=C1C2C(C(=O)[N]1[Hg][c]1cccs1)C1(Cl)C(Cl)=C(Cl)C2(Cl)C1(Cl)Cl (stereo not drawn)
6. COc1ccc(-n2cc(-c3cc(OC)c(OC)c(OC)c3)nc2SCc2ccccc2)cc1

*A*
> 100 µM
> 100 µM
58.5 µM
> 100 µM
37.8 µM
> 100 µM

Below are some compounds; for each one, tell me its TGI.
1. Cc1cc(NS(=O)(=O)c2ccc(NC(=O)c3ccc4[nH]c5ccccc5c(=O)c4c3)cc2)no1
2. CCCCCCCC(=O)NCC(O)CNC(=O)CCCCCCC
3. CC(=O)Oc1cc(C)c2c(c1OC(C)=O)CC1(O2)[C@@H](C)CCC2[C@@]3(C)CC[C@H](OC(C)=O)C(C)(C)C3CC[C@]21C (stereo partly drawn)

*A*
> 100 µM
> 100 µM
25.6 µM

* * *

Tested on: HOP-92 NSCLC
Assay: NCI tumour cell line growth inhibition, 48 h
quantity name: TGI

Example cases with answers are listed next.
molecule	TGI
Cn1ccc(C(=O)N2CCSC2=S)c(OCc2ccccc2)c1=O	> 100 µM
Cc1cc(NS(=O)(=O)c2ccc(NC(=O)c3ccc4[nH]c5ccccc5c(=O)c4c3)cc2)no1	> 100 µM
Cn1c2c(c3ccccc31)CCN(CCN1CCN(c3ccccc3)CC1)C2=O	96.5 µM
CC1(C)C2CCC(CN)(C2)C1O (configuration not stated)	> 100 µM

For each of the items listed, what is its TGI?
1. N#Cc1ncc(-c2ccc(C(F)(F)F)cc2)c(NCc2cc(C(F)(F)F)cc(C(F)(F)F)c2)n1
2. COc1ccc(-n2cc(-c3cc(OC)c(OC)c(OC)c3)nc2SCc2ccccc2)cc1

*A*
["5.74 µM", "> 100 µM"]

State recorded TGI for all listed molecules.
1. Cc1ccccc1C1=[N+]([O-])c2ccccc2C1=O
2. COc1cc(C(=O)N2N=C(c3ccc(S(C)(=O)=O)cc3)CC2c2ccco2)cc(OC)c1OC (configuration not stated)
3. CC1(Cl)CC2OC3(Br)C=CC(C)(O)C2(CC1Br)C3(C)C (configuration not stated)
4. Cc1cc2c(cc1Cl)SC(c1ccccc1)C(=O)NS2(=O)=O (configuration not stated)
5. CC(C)[C@H]1CC[C@H]2[C@@H](CC[C@H]3[C@](C)(CN)CCC[C@]23C)C1
6. COc1ccc(/C=C/c2sc3ccccc3[n+]2CCCCI)cc1OC

*A*
1. 62.5 µM
2. > 100 µM
3. > 100 µM
4. > 100 µM
5. 8.12 µM
6. > 10 µM

* * *

Tested on: HCC-2998 colon
Assay: NCI tumour cell line growth inhibition, 48 h
Record form. Attribute: TGI. Fill in for each entry.

Please review the following examples before continuing.
compound	TGI
N#Cc1c(NC(=S)Nc2ccc(Cl)cc2)sc2c1CCCC2	> 100 µM
COc1ccc(NC(=O)CC(=O)N2N=C(N(CCC#N)c3ccccc3Cl)CC2c2ccccc2)cc1 (stereo unspecified)	> 100 µM
Clc1cc2c(cc1Cl)Oc1cc(Cl)c(Cl)cc1O2	> 0.625 µM
COc1ccccc1/C=C(\C#N)C(=O)c1ccccc1	> 100 µM
N#CC(c1ccnc(Cl)n1)c1nc2ccccc2s1 (stereo unspecified)	46.8 µM
Cc1ccc(S(=O)(=O)n2c3c(c4ccccc42)CCN2C(=O)C(S(=O)(=O)c4ccccc4)=CCC32)cc1 (stereo unspecified)	0.44 µM
Cc1oc2c(C)c3oc(=O)cc(C)c3cc2c1CNC(=O)[C@@H]1OCCOCCOCCOCCOCCOC1C(=O)O (stereo partly specified)	> 100 µM
Cc1nc2ccc(Cl)cc2c2c1CCS2	> 100 µM

Please go through the list and note TGI for each compound.
1. Cn1c(-c2cccs2)cc(-c2ccccc2)c1-c1cccs1
2. Cn1ccc(C(=O)N2CCSC2=S)c(OCc2ccccc2)c1=O
3. CCCOC(=O)C1CCC(=O)N1C(=O)C(C)Cl (stereo unspecified)
4. CC(=O)N1c2ccccc2C2=CC3C4C(=O)N(c5ccccc5)C(=O)C4C21C1C(=O)N(c2ccccc2)C(=O)C31 (stereo unspecified)
5. NC(=O)c1cccc(C2OC(COP(=O)(O)O)C(O)C2O)c1 (stereo unspecified)

*A*
> 100 µM
> 100 µM
> 100 µM
> 100 µM
> 50 µM

For each entry beneath this line, provide reported TGI.
1. CN(C)CCC(O)(c1ccccc1)C(O)(CCN(C)C)c1ccccc1 (stereo unspecified)
2. C=C(C)C1Cc2c(cc(OC)c3c(=O)c4cccc(O)c4oc23)O1 (stereo unspecified)
3. CC(C)(O)C#Cc1ccc(/C=C/C(=O)c2ccccc2)s1
4. CCOC(O)(NC(=O)C(C(F)(F)F)C(F)(F)F)C(F)(F)F (stereo unspecified)
5. COC(=O)c1cc2c3c(cc(N(C)C)c2[nH]1)N(C(=O)c1cc2cc(OC)c(OC)c(OC)c2[nH]1)CC3CCl (stereo unspecified)
6. S=C1Cc2c(-c3ccc(Cl)cc3)cc(-c3ccccc3)nc2-c2ccccc2N1

*A*
1. > 100 µM
2. > 100 µM
3. 30.7 µM
4. > 100 µM
5. 0.0144 µM
6. > 100 µM

Would you mind listing TGI for each of the following compounds?
1. COc1ccc(NC(=O)CC(=O)N2N=C(c3ccccc3)C(N=Nc3ccc(S(=O)(=O)CCOS(=O)(=O)O)cc3)C2=O)cc1 (stereo unspecified)
2. N#CCCN(c1ccc(/C=C2\N=C(Cc3ccccc3)OC2=O)cc1)S(=O)(=O)c1ccccc1

*A*
["> 100 µM", "> 100 µM"]

* * *

System: SF-268 CNS
Experiment: NCI tumour cell line growth inhibition, 48 h
Kindly supply the reported TGI values for the records listed here.

Solved cases below.
compound	TGI
CC(=O)Oc1cc(C)c2c(c1OC(C)=O)CC1(O2)[C@@H](C)CCC2[C@@]3(C)CC[C@H](OC(C)=O)C(C)(C)C3CC[C@]21C (stereo partly specified)	12.8 µM
CN(C)c1nc(N(C)C)nc(N(C)CN(C)c2ccc(Cl)cc2)n1	> 100 µM
O=C(NCCCCN(CCCNC(=O)C(F)(F)F)Cc1ccc2ccccc2c1)C(F)(F)F	31.9 µM
O=C(O)c1cc(=O)[nH]c(SCc2ccccc2)n1	> 100 µM
O=C1[C@@H]2C(c3ccc(Cl)cc3Cl)=NO[C@@H]2C(=O)N1c1ccc(Cc2ccc(N3C(=O)[C@H]4C(c5ccc(Cl)cc5Cl)=NO[C@H]4C3=O)cc2)cc1	> 100 µM

For reference, reported TGI for CC[O-].CC[O-].O=C([CH-]C(=O)c1cccnc1)c1ccccc1.O=C([CH-]C(=O)c1cccnc1)c1ccccc1.[Ti+4] stands at > 100 µM
